In this section we review reported TGI values for a set of compounds.
tested on: RXF 393 renal; assay: NCI tumour cell line growth inhibition, 48 h

Record excerpt, results attached:
Challenge: // TGI lookup, key: CCN1C(=S)N(CC)C2C1NC(=S)N2/N=C/C=C/c1ccccc1 (centres undefined)
Response given: 6.58 µM

Challenge: // TGI lookup, key: "CC1(C)OC(=O)C=C([O-])O1.CC1(C)OC(=O)C=C([O-])O1.O=S(=O)([O-])c1ccc([O-])c2ncccc12.O=S(=O)([O-])c1ccc([O-])c2ncccc12.[Ti+4]"
Response given: > 100 µM

Challenge: // TGI lookup, key: "COc1ccc2c(c1OC)C1=C(C2=O)c2cc3c(cc2CCN1)OCO3"
Response given: > 100 µM

Challenge: // TGI lookup, key: CCOc1cc(NC(C)=O)ccc1C(=O)NN1C(=O)C(Oc2ccccc2)C1c1ccccc1 (centres undefined)
Response given: > 100 µM

Challenge: // TGI lookup, key: "COc1ccc(S(=O)(=O)O)cc1-n1nc(C(=O)Nc2ccccc2)n[n+]1-c1cc(S(=O)(=O)[O-])ccc1OC"
Response given: > 100 µM

Challenge: // TGI lookup, key: "C=C1C(=O)O[C@H]2[C@H]1CC/C(COC(=O)NCc1ccc(Cn3c(=O)sn(CCCCl)c3=O)cc1)=C\CC[C@@]1(C)O[C@@H]21"
Response given: 2.8 µM

Further cases:
Challenge: // TGI lookup, key: COc1cccc(NC(=O)CC(=O)N2N=C(N(CCC#N)c3ccccc3C)CC2c2ccccc2)c1 (centres undefined)
Response given: > 100 µM

Challenge: // TGI lookup, key: "COC(=O)c1ccccc1C#CC#Cc1ccccc1C(=O)OC"
Response given: > 10 µM

Challenge: // TGI lookup, key: OCC1OC(n2ccc3c(NO)ncnc32)C(O)C1O (centres undefined)
Response given: 1.14 µM

Challenge: // TGI lookup, key: O=C1NC(N/N=C\C(O)C(O)C(O)CO)=N/C1=C/c1ccc(Cl)cc1 (centres undefined)
Response given: > 100 µM
